# protocol-description: Components of the Cytosolic LPS Sensing Pathway: Gene Identification via Genome-wide siRNA Screen;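 also: robust z of the log signal after scaling to non-targeting control siRNA wells of the plate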
# test-parameters: RAW264.7 macrophages, IL-1a HTRF, actives lie on both sides, screened at 100 nM (by protocol), cells primed 5 h with Pam3CSK4 first
Screen size: about 53,000 sequences; about 3,700 (7%) were called active. This excerpt belongs to a sample that is enriched for actives.
Listed next: entries and their corresponding z-score.
Answer with a bare number; do not write a unit.

Below, each entry is followed by its recorded z-score result.
In [3]: df
Out[3]:
                                sequence  experimental_value
0     GCGGCUUAGUCCAUCAGGATT against Aplf               0.819
1   GCCUUCAGGACGAUUUAUUTT against Pla2g7                1.19
2     CGGAUUCAUCAGUUUGGUATT against Cdc7               0.274
3  GGCUCAGAUUUUGUGAUUCTT against Olfr894               -1.44
4  CCACUAAUUACAGUAACAUTT against Akr1c20               -1.11

Turning now to a further sequence:
Lookup: // returns reported z-score for input GCUUUGAAAUCUGAAUCAGTT against Terf2
Found: 2.06
